Target: Leucine aminopeptidase (Plasmodium falciparum (isolate 3D7)) (UniProt Q8IL11)
Sequence (Q8IL11 whole entry, looked up): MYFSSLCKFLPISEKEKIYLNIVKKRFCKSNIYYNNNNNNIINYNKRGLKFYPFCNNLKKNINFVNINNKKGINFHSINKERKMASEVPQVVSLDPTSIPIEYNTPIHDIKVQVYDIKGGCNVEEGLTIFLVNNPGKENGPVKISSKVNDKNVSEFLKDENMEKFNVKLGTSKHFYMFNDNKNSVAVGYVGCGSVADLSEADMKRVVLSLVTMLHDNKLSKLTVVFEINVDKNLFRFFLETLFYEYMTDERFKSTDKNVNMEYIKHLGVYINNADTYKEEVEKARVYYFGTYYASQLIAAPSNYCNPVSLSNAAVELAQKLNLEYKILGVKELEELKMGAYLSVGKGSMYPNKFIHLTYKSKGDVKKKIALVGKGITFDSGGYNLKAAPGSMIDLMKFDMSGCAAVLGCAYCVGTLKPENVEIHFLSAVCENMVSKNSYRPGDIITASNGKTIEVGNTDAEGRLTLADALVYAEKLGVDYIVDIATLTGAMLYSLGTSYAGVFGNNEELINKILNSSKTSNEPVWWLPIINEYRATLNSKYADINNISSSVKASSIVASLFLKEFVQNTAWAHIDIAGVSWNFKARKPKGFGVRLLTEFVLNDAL
Assay: P. falciparum M17LAP inhibitors, primary screen, biochemical, fluorogenic H-Leu-NHMec substrate, 1536-well (AID 1619);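 also: plate controls were full reaction with DMSO carrier for no effect and no enzyme background for full effect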
Conditions: recombinant M17LAP, H-Leu-NHMec fluorogenic kinetic assay; at 30 µM; hits give high values
The campaign covered roughly 220,000 compounds. About 830 (0.38%) were called active. A selection follows. Measured potencies and affinities stand elsewhere.
MEASUREMENT_LABEL: inhibition (%)
# number only, unit % dropped from output

CNCC(=O)Nc1ccc(Cl)c(C(F)(F)F)c1 = -1.94

What value of measured inhibition is listed for CC(C)Oc1ccc(C(CC(=O)O)NC(=O)C(Sc2ccccc2)c2ccccc2)cc1 (stereo unspecified) ? 19.5

Look up inhibition: "O=C(NNS(=O)(=O)c1ccccc1)c1cccnc1" 1.34

Bench note: what inhibition did O=C(O)CC1S/C(=N/N=C/c2ccc(-c3ccc(Cl)cc3[N+](=O)[O-])o2)NC1=O (stereo unspecified) show? 31.2

Value lookup for inhibition; key = "COc1ccccc1CNC(=O)COc1ccccc1OC" 3.35
